B1: TPR t1 (parent)
chain: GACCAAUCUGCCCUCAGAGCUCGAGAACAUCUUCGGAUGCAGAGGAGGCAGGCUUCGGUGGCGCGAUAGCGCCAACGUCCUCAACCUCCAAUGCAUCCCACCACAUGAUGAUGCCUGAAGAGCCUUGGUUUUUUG

# Variants of: B1
# test: polymerase ribozyme fitness, log enrichment relative to wild type (log ratio); higher = more active; in vitro selection for triplet polymerase activity
# class assignment by measured polymerase ribozyme fitness (log ratio): low band: < -4; middle band: ≥ -4 and < -2; high band: ≥ -2

- variant key: "A29G G69C G77C"
  label value: "low band"
- variant key: "C11U C115A U125G"
  label value: "middle band"
- variant key: "G71A U132A"
  label value: "high band"
- variant key: "G10A U109A U133G"
  label value: "low band"
- variant key: "G45U C85G G122A"
  label value: "middle band"

Okay, now this variant:
Exercise: Returns: class label. Input: C15U G23A A111U
Solution: low band
